Molecular target: T1, human CD33 Fc fusion protein (human, UniProt P20138 18-259)
T1 construct: also called hCD33-Fc; human CD33/Fc chimera (R&D Systems)
T1 sequence (P20138 18-259 limits assumed): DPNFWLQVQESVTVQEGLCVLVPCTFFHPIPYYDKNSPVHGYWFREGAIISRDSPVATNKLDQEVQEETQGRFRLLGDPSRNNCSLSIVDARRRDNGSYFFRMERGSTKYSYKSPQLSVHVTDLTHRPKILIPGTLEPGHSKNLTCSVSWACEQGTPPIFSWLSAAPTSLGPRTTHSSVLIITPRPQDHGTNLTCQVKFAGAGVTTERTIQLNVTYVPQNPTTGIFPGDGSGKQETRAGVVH
Test: ForteBio BLI or MSD-SET, IgG, avid;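 note: Anti-CD33 IgG affinity by BLI, IgG captured on AHQ sensors with antigen in solution and a one-to-one kinetic fit, or by MSD solution equilibrium titration with quadratic fit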
pKd: −log10 of the molar value.
Below, each of the binders is paired with its reported pKd value.

BINDER	pKd
C-12 (antibody, V domains shown, human IgG1) VH: EVQLLESGGGLVQPGGSLRLSCAASGFTFSNYAMSWVRQAPGKGLEWVSAISGSGGSTYYADSVKGRFTISRDNSKNTLYLQMNSLRAEDTAVYYCARDGSRYSYGLVAYGMDVWGQGTTVTVSS VL: EIVLTQSPGTLSLSPGERATLSCRASQSVSSSFLAWYQQKPGQAPRLLIYGASSRATGIPDRFSGSGSGTDFTLTISRLEPEDFAVYYCQQSQLRPTFGGGTKVEIK	8.74
C-68 (antibody, V domains shown, human IgG1) VH: QVQLQESGPGLVKPSQTLSLTCTVSGGSISSGGYYWSWIRQHPGKGLEWIGNIYYSGSTYYNPSLKSRVTISVDTSKNQFSLKLSSVTAADTAVYYCARDLPNSGSPGSDYFDYWGQGTLVTVSS VL: EIVLTQSPGTLSLSPGERATLSCRASQSVSSSYLAWYQQKPGQAPRLLIYGASSRATGIPDRFSGSGSGTDFTLTISRLEPEDFAVYYCQQYDNYPPTFGGGTKVEIK	8.34
C-10 (antibody, V domains shown, human IgG1) VH: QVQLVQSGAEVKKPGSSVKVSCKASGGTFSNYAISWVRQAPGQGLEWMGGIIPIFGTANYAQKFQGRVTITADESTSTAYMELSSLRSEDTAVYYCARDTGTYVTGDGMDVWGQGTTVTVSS VL: EIVMTQSPATLSVSPGERATLSCRASQSVSSNLAWYQQKPGQAPRLLIYGASTRATGIPARFSGSGSGTEFTLTISSLQSEDFAVYYCQQYVNLPITFGGGTKVEIK	8.85
